Values compiled from patent US6737383B1.

system: morningglory; test: Test B pre/postemergence morningglory; format: in vivo, Ipomoea hederacea; conditions: Rate 250 g/ha; Postemergence
# maps each entry to its Plant response rating (0 to 10; 0 is no effect, 10 is complete control), Morningglory

Would you please look over these solved cases?
CC(C)N(C(=O)n1oc(=O)n(Cc2ccco2)c1=O)c1ccc(Cl)cc1 = 2
CCOC(=O)C(C)N(C(=O)n1oc(=O)n(CC)c1=O)c1ccc(F)cc1 (centres unmarked) = 0
CC(C)N(C(=O)n1oc(=O)n(CC(C)(C)C)c1=O)c1ccc(F)cc1 = 9
COC(=O)CCCn1c(=O)on(C(=O)N(c2ccc(F)cc2)C(C)C)c1=O = 5
CC(C)N(C(=O)n1oc(=O)n(-c2cccnc2)c1=O)c1ccc(F)cc1 = 1
CCc1ccc(N(C(=O)n2oc(=O)n(-c3ccccc3C)c2=O)C(C)C)cc1 = 2

Qu. Name the recorded Plant response rating (0 to 10; 0 is no effect, 10 is complete control), Morningglory for "COC(=O)Cn1c(=O)on(C(=O)N(c2ccc(F)cc2)C(C)C)c1=O" .
Ans. 3

Qu. # input compound: "Cc1ccccc1N(C(=O)n1oc(=O)n(-c2ccccc2C)c1=O)C(C)C" ; wanted: its Plant response rating (0 to 10; 0 is no effect, 10 is complete control), Morningglory
Ans. 5
